- EXPERIMENT NOTES: Population pharmacokinetic analysis in patients
- Assay type: in vivo, human
- MEASUREMENT CONTEXT: male, human, plasma, 25 mg/m2; intravenous 25 mg/m^2 every 3 weeks, patients with metastatic prostate cancer; CV 107%; read-out: mean Cmax

{"COMPOUND": "CO[C@H]1C(=O)[C@]2(C)[C@@H](OC)C[C@H]3OC[C@@]3(OC(C)=O)[C@H]2[C@H](OC(=O)c2ccccc2)[C@]2(O)C[C@H](OC(=O)[C@H](O)[C@@H](NC(=O)OC(C)(C)C)c3ccccc3)C(C)=C1C2(C)C [cabazitaxel]", "U": "ng/mL", "Cmax": 226}
